These entries and their values trace back to the kinase profiling compilation of Christmann-Franck et al. (2016).

# Target Desc: RIPK2 (human) (UniProt O43353)
# Sequence (O43353 whole entry, looked up): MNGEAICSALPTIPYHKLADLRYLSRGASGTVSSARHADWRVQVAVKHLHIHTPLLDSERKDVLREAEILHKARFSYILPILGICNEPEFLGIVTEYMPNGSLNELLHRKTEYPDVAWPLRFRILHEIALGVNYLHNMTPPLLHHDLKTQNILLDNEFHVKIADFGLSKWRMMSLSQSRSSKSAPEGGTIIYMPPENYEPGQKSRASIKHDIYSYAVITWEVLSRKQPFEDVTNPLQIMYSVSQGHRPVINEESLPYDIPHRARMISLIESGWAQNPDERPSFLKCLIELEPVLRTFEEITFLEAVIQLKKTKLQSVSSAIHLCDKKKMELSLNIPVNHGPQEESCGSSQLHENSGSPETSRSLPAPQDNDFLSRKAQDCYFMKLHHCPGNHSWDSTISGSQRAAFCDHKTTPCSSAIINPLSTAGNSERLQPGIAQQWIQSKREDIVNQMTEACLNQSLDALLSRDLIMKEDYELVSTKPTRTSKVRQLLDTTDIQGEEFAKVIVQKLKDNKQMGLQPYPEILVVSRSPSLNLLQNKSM
# Method Summary: radiometric filter-binding kinase assay
# Conditions Used: compound 100.0 µM; ATP 20 µM
Readout Label: inhibition (%)

- Compound: "CC(=O)Nc1nc2cnc(-c3c(C)cccc3C)cn2n1"
  inhibition / %: 5
- Compound: "O=C(Nc1cnc2[nH]ccn2c1=O)c1ccccc1"
  inhibition / %: 16
- Compound: "O=C(c1cccc(-c2cc3c(=O)[nH]cnc3s2)c1)N1CCOCC1"
  inhibition / %: 12
- Compound: "Cc1cccc(C)c1-c1cn2nc(N)nc2cn1"
  inhibition / %: 43

I: CC(=O)Nc1nc2cnc(-c3ccccc3)cn2n1
II: O=c1c(NC(=S)NCc2ccccc2)cnc2[nH]ccn12
III: Nc1nc2cnc(-c3ccccc3)cn2n1
IV: Nc1cnc2c(-c3c(F)cccc3F)cccn2c1=O
Asked: List these items ordered by inhibition, big to small. Answer format: list of labels, ordered as asked.
Given back: III, I, IV, II

1: CC1CN(c2nc3ccccn3c(=O)c2N)CC(C)O1 (stereo not given)
2: COc1ccc(NC(=S)Nc2cnc3[nH]cnn3c2=O)cn1
3: CC(C)(C)Nc1c(COCc2ccccc2)nc2[nH]cnn12
4: O=c1cc(-c2ccccc2F)nc2[nH]ccn12
Asked: With regard to inhibition, arrange the entries in ascending order, please. Your task in answering is to list the labels in the requested order.
Given back: 2, 3, 1, 4

A: CC(C)(C)Nc1c(C2CC2)nc2[nH]cnn12
B: COc1ccc(-c2cc3c(=O)[nH]cnc3s2)cc1OC
Asked: Hi there! Just curious which has the higher inhibition between A and B . Respond using the label that marks the chosen record.
Given back: B
(B: 65%, A: 0%)

---

# Target Desc: PRKCZ (human) (UniProt Q05513)
# Sequence (Q05513 whole entry, looked up): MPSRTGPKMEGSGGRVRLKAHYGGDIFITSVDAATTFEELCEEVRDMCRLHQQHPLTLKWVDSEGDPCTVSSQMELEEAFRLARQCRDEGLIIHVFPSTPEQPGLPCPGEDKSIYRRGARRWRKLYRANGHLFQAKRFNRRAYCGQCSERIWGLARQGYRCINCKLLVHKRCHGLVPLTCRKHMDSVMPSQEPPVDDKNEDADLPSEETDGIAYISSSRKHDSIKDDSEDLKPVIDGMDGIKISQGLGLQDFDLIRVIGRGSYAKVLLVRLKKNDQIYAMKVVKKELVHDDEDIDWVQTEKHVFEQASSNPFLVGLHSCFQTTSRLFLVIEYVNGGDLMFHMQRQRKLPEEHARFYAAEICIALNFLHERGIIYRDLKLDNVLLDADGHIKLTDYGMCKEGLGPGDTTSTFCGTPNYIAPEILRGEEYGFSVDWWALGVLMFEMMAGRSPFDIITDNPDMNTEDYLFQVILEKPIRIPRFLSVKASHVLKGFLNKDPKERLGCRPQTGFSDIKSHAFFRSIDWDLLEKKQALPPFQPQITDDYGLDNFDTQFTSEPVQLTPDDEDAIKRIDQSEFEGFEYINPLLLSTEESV
# Method Summary: radiometric filter-binding kinase assay
# Conditions Used: compound 100.0 µM; ATP 5 µM
Readout Label: inhibition (%)

- Cpd Smiles: "Nc1cnc2c(-c3c(F)cccc3F)cccn2c1=O"
  Numeric Result: 0

a: Cc1cccc(C)c1-c1cn2nc(N)nc2cn1
b: O=c1cc(-c2ccccc2F)nc2[nH]ccn12
Asked: Returns: the label, a or b , whose recorded inhibition is the lower number. // output: label of the selected item
Given back: b

---

# Target Desc: MAPK12 (human) (UniProt P53778)
# Sequence (P53778 whole entry, looked up): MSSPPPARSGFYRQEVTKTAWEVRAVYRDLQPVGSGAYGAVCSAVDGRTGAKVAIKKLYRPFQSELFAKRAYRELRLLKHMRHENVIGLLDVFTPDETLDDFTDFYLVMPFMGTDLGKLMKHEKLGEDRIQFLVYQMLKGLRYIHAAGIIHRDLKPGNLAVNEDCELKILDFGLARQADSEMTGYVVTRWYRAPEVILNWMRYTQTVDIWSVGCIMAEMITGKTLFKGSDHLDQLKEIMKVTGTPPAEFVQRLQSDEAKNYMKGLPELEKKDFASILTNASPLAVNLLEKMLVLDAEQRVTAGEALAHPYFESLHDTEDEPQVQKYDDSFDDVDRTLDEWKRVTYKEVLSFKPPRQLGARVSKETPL
# Method Summary: radiometric filter-binding kinase assay
# Conditions Used: compound 100.0 µM; ATP 5 µM
Readout Label: inhibition (%)

Please review the following examples before continuing.
- Cpd Smiles: "CC(C)(C)Nc1c(COCc2ccccc2)nc2[nH]cnn12"
  Measurement Units: "%"
  Numeric Result: 0
- Cpd Smiles: "CC(=O)Nc1nc2cnc(-c3c(C)cccc3C)cn2n1"
  Measurement Units: "%"
  Numeric Result: 0
- Cpd Smiles: "CC(C)(C)Nc1c(C2CC2)nc2[nH]cnn12"
  Measurement Units: "%"
  Numeric Result: 0
- Cpd Smiles: "O=C(c1cccc(-c2cc3c(=O)[nH]cnc3s2)c1)N1CCOCC1"
  Measurement Units: "%"
  Numeric Result: 0

1: O=C(Nc1cnc2[nH]cnn2c1=O)c1ccccc1
2: O=c1cc(-c2ccccc2F)nc2[nH]ccn12
3: CC(=O)Nc1nc2cnc(-c3ccccc3)cn2n1
4: Nc1nc2cnc(-c3ccccc3)cn2n1
Asked: Please give the order of these compounds when sorted by inhibition, largest value leading. Answer by writing out the labels in the requested order.
Given back: 3, 2, 4, 1
